The reported numbers originate from PubChem BioAssay (NCI).

System: NCI-H226 lung
assay.protocol: NCI-60 one-dose screen, 48 h
conditions: 10 µM unless noted
About 83,000 compounds went through this panel and 20% of them were active in at least one assay; those are over-represented in the sample as a whole. Active and inactive are the calls of the source. Rule for the calls: active = growth percent below 10; inactive = the rest.
Outcomes you can answer with include only these: active, inactive

CC(=O)OC(C)c1cccc(C#N)c1 (stereo not drawn) ... inactive

Incoming: Please share the test call associated with OCC1CCC(O)C(CO)N1 (stereo not drawn) .
Outgoing: inactive

Incoming: Recorded test outcome, item CC(C)N1CC(=O)N2CSCC2C1=O (stereo not drawn)
Outgoing: inactive

Incoming: Which outcome was entered for the compound Oc1cccnc1CN1CCCC1 in this test?
Outgoing: inactive

Incoming: Please let me know the test result on file for CCN(CC)CCN1CNC(=S)NC1 .
Outgoing: active

Incoming: Recorded call for C[C@H](CCC[C@H](C)OS(=O)(=O)c1ccccc1)OS(=O)(=O)c1ccccc1 ?
Outgoing: inactive

Incoming: Record request — test call for Nc1ccc(F)cc1F
Outgoing: inactive

Incoming: What did this assay record as the result for Cc1ccc([N+](=O)[O-])c(C)n1 ?
Outgoing: inactive

Incoming: Test call, this compound: C=CCOc1ccc(Cl)cc1Cl
Outgoing: inactive

Incoming: Test call, this compound: COc1cc(C(=O)O)c(O)c(C(C)(C)C)c1
Outgoing: inactive

Incoming: Hey, what did the test say about N#C/C(=C\c1ccc2c(c1)OCO2)c1ccccc1 ?
Outgoing: inactive

Incoming: Which outcome was entered for the compound Cc1c(Cl)cccc1N=C=S in this test?
Outgoing: inactive

Incoming: Hello, I am checking results. What call was entered for S=C(Sc1ccc(Cl)cc1)Sc1ccc(Cl)cc1 ?
Outgoing: active

* * *

Test system: MDA-MB-231 breast
assay.protocol: NCI-60 one-dose screen, 48 h
conditions: 10 µM unless noted
Compounds without any hit were thinned out: in the full panel of roughly 83,000, 20% have a hit. Calls of active or inactive are those of the source. How the source made its calls: active means growth percent below 10; inactive means the rest.
Outcome (select one): 1 (active), 0 (inactive)

Incoming: In this assay, the call recorded for NNc1ncccn1 was what?
Outgoing: 0

Incoming: Tell me the recorded outcome of this test for Nc1ccn(C2OC(CO)C(O)C2F)c(=O)n1 (stereo not drawn) .
Outgoing: 0

Incoming: Please let me know the test result on file for CCN(CC)CCN1CNC(=S)NC1 .
Outgoing: 0

Incoming: What classification did Cc1cc2c3ccc(C)[n+](C)c3ccc2n1C end up with in this test?
Outgoing: 0

Incoming: // return assay outcome for CC(=O)Oc1c(Cl)cccc1-c1ccccc1
Outgoing: 0

Incoming: Per the records of this test, what outcome belongs to NCC(O)C(O)C(O)C(O)CO (stereo not drawn) ?
Outgoing: 0

Incoming: In this assay, the call recorded for Clc1cccc(Cl)c1C1CSc2ccccc2N=C1c1ccccc1 (stereo not drawn) was what?
Outgoing: 0

Incoming: Write down the call the test reported for this compound. Item: CCCCCC/C=C\CCCCCCCCCc1cc(O)cc(OC)c1O
Outgoing: 1

Incoming: Recorded test call requested for COC(=O)Cc1cc(COC(C)=O)ccc1C
Outgoing: 0

Incoming: Tell me the recorded outcome of this test for CCOC(=O)c1cc(C)[nH]c(=O)c1C#N .
Outgoing: 0

* * *

System: KM12 colon
assay.protocol: NCI-60 one-dose screen, 48 h
conditions: 10 µM unless noted
This is part of a sample that, as a whole, favours compounds with a hit. Of some 83,000 tested, about 20% had one in any assay. Active and inactive are the calls of the source. The calls were made as follows: active = growth percent below 10; inactive = the rest.
Pick one and only one: 1 = active, 0 = inactive

Previously resolved entries follow.
COC(c1ccc2c(c1)OCO2)C(C)Br (stereo not given) ... 0
CCCCCCCCCCCCCCCCCC(=O)NCCNC(=O)CCCCCCCCCCCCCCCCC ... 0

Incoming: Call for entry NNc1ncccn1 :
Outgoing: 0

Incoming: Kindly provide the recorded test outcome for the following compound: O=C(CCCl)OCCOc1ccccc1
Outgoing: 0

Incoming: # outcome recorded in this test, key = NC(=S)c1c(N)n(C2OC(CO)C(O)C2O)c2ncnc(N)c12 (stereo not given)
Outgoing: 1

Incoming: Dear all, I need the recorded test outcome for O=C(NCc1ccccc1)/C(=C/c1ccccc1)NC(=O)c1ccccc1 , thank you.
Outgoing: 0

Incoming: What outcome does the record of this test show for Nc1cc(N)ncn1 ?
Outgoing: 0

Incoming: GET /call?item= NS(=O)(=O)c1cc(=O)[nH]c(=O)[nH]1 returns the recorded outcome of this test.
Outgoing: 0

Incoming: What is the recorded call for this compound in the test? c1ccc(Nc2ccccn2)nc1
Outgoing: 0
